subject-of-test: 5-hydroxytryptamine receptor 5A (Homo sapiens)
Sequence (P47898 whole entry): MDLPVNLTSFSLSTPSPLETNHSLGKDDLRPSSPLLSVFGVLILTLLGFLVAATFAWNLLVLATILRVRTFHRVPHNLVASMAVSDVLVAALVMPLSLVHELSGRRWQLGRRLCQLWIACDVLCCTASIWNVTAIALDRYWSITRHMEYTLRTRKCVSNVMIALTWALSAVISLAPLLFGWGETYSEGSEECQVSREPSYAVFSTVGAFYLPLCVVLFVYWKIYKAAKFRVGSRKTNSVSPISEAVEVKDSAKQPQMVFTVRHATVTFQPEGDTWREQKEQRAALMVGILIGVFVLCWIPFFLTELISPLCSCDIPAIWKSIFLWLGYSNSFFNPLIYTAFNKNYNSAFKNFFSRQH
assay-text: Displacement of [3H]LSD from human recombinant 5HT5A receptor

- smiles: "Nn1c(CCCCN2CCN(c3ccc4ccccc4n3)CC2)nc2c(c1=O)CCCC2"
  IC50: "> 1 µM"

====

subject-of-test: UniProtKB P08172
Sequence (P08172 whole entry): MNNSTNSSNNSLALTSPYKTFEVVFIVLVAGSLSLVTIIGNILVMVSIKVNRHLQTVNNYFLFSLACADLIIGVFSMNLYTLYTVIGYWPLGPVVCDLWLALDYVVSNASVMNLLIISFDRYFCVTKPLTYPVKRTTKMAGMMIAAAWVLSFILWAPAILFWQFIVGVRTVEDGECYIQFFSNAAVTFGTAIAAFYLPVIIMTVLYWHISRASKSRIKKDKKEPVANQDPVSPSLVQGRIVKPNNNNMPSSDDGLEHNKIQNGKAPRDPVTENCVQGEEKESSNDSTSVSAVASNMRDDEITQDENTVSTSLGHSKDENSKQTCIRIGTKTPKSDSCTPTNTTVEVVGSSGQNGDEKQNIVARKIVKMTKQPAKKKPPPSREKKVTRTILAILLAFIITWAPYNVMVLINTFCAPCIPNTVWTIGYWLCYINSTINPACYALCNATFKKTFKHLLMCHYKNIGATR
assay-text: Displacement of [3H]AF-DX384 from human recombinant muscarinic M2 receptor
readout-label: IC50

- smiles: "Nn1c(CCCCN2CCN(c3ccc4ccccc4n3)CC2)nc2c(c1=O)CCCC2"
  readout-label: "IC50"
  meas-value: "> 1 µM"
